- TARGET_OR_SYSTEM: TG1 (Homo sapiens)
- PROCEDURE_SUMMARY: Transglutaminase inhibition, IC50 at TG1
- Type: biochemical
- MEASUREMENT_SETUP: Table 2
Response field label: string, one of rule met (IC50 strictly below 0.5 µM) or rule not met.

[
  {
    "MOLECULE": "COC(=O)[C@H](CC(C)C)NC(=O)[C@@H]1CCCN1C(=O)[C@H](CCC(N)=O)NC(=O)[C@H](CCC1=CC(=O)CC1)NC(=O)OCc1ccccc1",
    "DISCRETE_LABEL": "rule not met"
  },
  {
    "MOLECULE": "COC(=O)[C@H](CC(C)C)NC(=O)[C@@H]1CCCN1C(=O)[C@H](CCC(N)=O)NC(=O)[C@H](CC/C=C/S(C)(=O)=O)NC(=O)OCc1ccccc1",
    "DISCRETE_LABEL": "rule met"
  },
  {
    "MOLECULE": "CCOC(=O)C(=O)/C=C/CC[C@H](NC(=O)OCc1ccccc1)C(=O)N[C@@H](Cc1ccccc1)C(=O)OC",
    "DISCRETE_LABEL": "rule not met"
  },
  {
    "MOLECULE": "COC(=O)[C@H](CC(C)C)NC(=O)[C@@H]1CCCN1C(=O)[C@H](CCC(N)=O)NC(=O)[C@H](CC/C=C1\\CCOC1=O)NC(=O)OCc1ccccc1",
    "DISCRETE_LABEL": "rule met"
  },
  {
    "MOLECULE": "CC(C)OC(=O)C=CCCC(NC(=O)OCc1ccccc1)C(=O)NC(Cc1ccc(F)cc1)C(=O)N1CCCC1C(=O)O (centres unmarked)",
    "DISCRETE_LABEL": "rule not met"
  }
]

* * *

// IC50 lookup, one value per entry
- TARGET_OR_SYSTEM: TG1 (Homo sapiens, UniProt P22735)
- Sequence (P22735 whole entry): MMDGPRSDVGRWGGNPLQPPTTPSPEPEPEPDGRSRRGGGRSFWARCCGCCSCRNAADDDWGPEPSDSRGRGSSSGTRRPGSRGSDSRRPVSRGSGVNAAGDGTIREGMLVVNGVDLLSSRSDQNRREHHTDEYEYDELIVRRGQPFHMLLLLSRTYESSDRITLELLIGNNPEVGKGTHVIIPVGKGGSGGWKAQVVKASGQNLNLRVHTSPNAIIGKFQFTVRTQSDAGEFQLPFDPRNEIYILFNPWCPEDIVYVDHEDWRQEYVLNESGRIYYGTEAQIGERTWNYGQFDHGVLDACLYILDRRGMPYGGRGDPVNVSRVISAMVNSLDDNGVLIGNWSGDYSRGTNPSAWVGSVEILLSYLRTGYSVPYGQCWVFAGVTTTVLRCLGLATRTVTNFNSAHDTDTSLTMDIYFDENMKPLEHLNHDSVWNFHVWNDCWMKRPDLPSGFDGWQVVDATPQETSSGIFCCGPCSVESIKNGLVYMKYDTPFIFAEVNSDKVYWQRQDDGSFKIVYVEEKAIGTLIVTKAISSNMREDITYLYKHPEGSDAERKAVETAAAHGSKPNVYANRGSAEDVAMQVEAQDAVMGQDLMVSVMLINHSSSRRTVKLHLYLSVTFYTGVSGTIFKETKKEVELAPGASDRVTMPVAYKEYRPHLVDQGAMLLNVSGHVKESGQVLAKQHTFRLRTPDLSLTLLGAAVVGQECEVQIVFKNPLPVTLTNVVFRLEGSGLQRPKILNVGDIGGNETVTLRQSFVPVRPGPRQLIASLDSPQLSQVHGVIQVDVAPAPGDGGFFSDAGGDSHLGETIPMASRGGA
- PROCEDURE_SUMMARY: Transglutaminase inhibition, IC50 at TG1
- Type: biochemical
- MEASUREMENT_SETUP: Table 2

[
  {
    "COMPOUND": "CC(C)CC(NC(=O)C1CCCCN1C(=O)C(Cc1ccccc1)NC(=O)C(CCC=CC(=O)OCc1ccccc1)NC(=O)OCc1ccccc1)C(N)=O (stereo not drawn)",
    "IC50": "825 nM"
  },
  {
    "COMPOUND": "COC(=O)[C@H](CC(C)C)NC(=O)[C@@H]1CCCN1C(=O)[C@H](CCC(N)=O)NC(=O)[C@H](CC/C=C/S(=O)(=O)N(C)C)NC(=O)OCc1ccccc1",
    "IC50": "1300 nM"
  },
  {
    "COMPOUND": "CCCCCNC(=O)/C=C/CC[C@H](NC(C)=O)C(=O)N[C@@H](CCC(N)=O)C(=O)N[C@@H](CC(=O)O)C(=O)N1CCC[C@H]1C(=O)OC",
    "IC50": "23000 nM"
  }
]

* * *

- TARGET_OR_SYSTEM: recombinant human tissue transglutaminase (His6-rh-TG2) (Homo sapiens, UniProt P21980)
- Sequence (P21980 whole entry): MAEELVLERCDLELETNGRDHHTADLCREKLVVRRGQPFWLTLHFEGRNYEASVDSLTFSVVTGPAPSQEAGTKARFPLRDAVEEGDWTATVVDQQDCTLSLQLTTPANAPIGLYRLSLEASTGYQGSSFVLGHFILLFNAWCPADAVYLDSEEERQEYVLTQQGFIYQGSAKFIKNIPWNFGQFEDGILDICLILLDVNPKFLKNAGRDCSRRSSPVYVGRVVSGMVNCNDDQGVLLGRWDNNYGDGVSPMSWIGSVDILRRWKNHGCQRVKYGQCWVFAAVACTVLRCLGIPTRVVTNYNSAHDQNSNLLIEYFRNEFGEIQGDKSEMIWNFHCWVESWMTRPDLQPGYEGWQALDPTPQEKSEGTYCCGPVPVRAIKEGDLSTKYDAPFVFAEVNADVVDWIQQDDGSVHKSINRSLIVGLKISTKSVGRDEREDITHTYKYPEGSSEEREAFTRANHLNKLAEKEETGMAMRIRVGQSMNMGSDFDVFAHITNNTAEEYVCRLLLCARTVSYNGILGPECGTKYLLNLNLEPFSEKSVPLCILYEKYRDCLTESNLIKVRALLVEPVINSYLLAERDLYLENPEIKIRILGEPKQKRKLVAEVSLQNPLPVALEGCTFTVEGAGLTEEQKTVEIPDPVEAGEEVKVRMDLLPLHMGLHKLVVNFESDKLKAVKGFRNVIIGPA
- PROCEDURE_SUMMARY: Inactivation of human tissue transglutaminase, fluorescence assay, IC50
- Format: biochemical
- MEASUREMENT_SETUP: Table 2; 5 min preincubation, 37° C.
OUTCOME_MEASURE: IC50 (µM)

[
  {
    "COMPOUND": "CC(C)CC(NC(=O)C1CCCCN1C(=O)C(Cc1ccccc1)NC(=O)C(CCC=CC(=O)OCc1ccccc1)NC(=O)OCc1ccccc1)C(N)=O (stereo not shown)",
    "READOUT_RELATION": "=",
    "RESULT": 0.13
  },
  {
    "COMPOUND": "COC(=O)[C@H](CC(C)C)NC(=O)[C@@H]1CCCN1C(=O)[C@H](CCC(N)=O)NC(=O)[C@H](CC/C=C/S(C)(=O)=O)NC(=O)OCc1ccccc1",
    "READOUT_RELATION": "=",
    "RESULT": 0.054
  },
  {
    "COMPOUND": "COC(=O)[C@H](CC(C)C)NC(=O)[C@@H]1CCCN1C(=O)[C@H](CCC(N)=O)NC(=O)[C@H](CC/C=C1\\CCOC1=O)NC(=O)OCc1ccccc1",
    "READOUT_RELATION": "=",
    "RESULT": 8.9
  },
  {
    "COMPOUND": "CC(C)OC(=O)C=CCCC(NC(=O)OCc1ccccc1)C(=O)NC(Cc1ccc(F)cc1)C(=O)N1CCCC1C(=O)O (stereo not shown)",
    "READOUT_RELATION": "=",
    "RESULT": 1.5
  },
  {
    "COMPOUND": "CCCCCNC(=O)/C=C/CC[C@H](NC(C)=O)C(=O)N[C@@H](CCC(N)=O)C(=O)N[C@@H](CC(=O)O)C(=O)N1CCC[C@H]1C(=O)OC",
    "READOUT_RELATION": ">",
    "RESULT": 100
  },
  {
    "COMPOUND": "COC(=O)C(CC(C)C)NC(=O)C1CCCN1C(=O)C(CCC(N)=O)NC(=O)C(CCC=CC#N)NC(=O)OCc1ccccc1 (stereo not shown)",
    "READOUT_RELATION": "=",
    "RESULT": 43
  },
  {
    "COMPOUND": "COC(=O)[C@H](CC(C)C)NC(=O)[C@@H]1CCCN1C(=O)[C@H](CCC(N)=O)NC(=O)[C@H](CCC1=CC(=O)CC1)NC(=O)OCc1ccccc1",
    "READOUT_RELATION": "=",
    "RESULT": 18
  },
  {
    "COMPOUND": "COC(=O)C(CC(C)C)NC(=O)C1CCCN1C(=O)C(CCC(N)=O)NC(=O)C(CCC=CC(=O)O)NC(=O)OCc1ccccc1 (stereo not shown)",
    "READOUT_RELATION": "=",
    "RESULT": 23
  },
  {
    "COMPOUND": "COC(=O)[C@H](CC(C)C)NC(=O)[C@@H]1CCCN1C(=O)[C@H](CCC(N)=O)NC(=O)[C@H](CC/C=C/S(=O)(=O)N(C)C)NC(=O)OCc1ccccc1",
    "READOUT_RELATION": "=",
    "RESULT": 0.76
  },
  {
    "COMPOUND": "CCOC(=O)C(=O)/C=C/CC[C@H](NC(=O)OCc1ccccc1)C(=O)N[C@@H](Cc1ccccc1)C(=O)OC",
    "READOUT_RELATION": "=",
    "RESULT": 3.8
  }
]
